Exercise: for every item that follows, state its recorded pEC50.
Target: human TLR7 (Homo sapiens)
Construct: host or cells: HEK-Blue TLR7 cells (engineered human embryonic kidney cells)
Sequence (Q9NYK1 27-1049): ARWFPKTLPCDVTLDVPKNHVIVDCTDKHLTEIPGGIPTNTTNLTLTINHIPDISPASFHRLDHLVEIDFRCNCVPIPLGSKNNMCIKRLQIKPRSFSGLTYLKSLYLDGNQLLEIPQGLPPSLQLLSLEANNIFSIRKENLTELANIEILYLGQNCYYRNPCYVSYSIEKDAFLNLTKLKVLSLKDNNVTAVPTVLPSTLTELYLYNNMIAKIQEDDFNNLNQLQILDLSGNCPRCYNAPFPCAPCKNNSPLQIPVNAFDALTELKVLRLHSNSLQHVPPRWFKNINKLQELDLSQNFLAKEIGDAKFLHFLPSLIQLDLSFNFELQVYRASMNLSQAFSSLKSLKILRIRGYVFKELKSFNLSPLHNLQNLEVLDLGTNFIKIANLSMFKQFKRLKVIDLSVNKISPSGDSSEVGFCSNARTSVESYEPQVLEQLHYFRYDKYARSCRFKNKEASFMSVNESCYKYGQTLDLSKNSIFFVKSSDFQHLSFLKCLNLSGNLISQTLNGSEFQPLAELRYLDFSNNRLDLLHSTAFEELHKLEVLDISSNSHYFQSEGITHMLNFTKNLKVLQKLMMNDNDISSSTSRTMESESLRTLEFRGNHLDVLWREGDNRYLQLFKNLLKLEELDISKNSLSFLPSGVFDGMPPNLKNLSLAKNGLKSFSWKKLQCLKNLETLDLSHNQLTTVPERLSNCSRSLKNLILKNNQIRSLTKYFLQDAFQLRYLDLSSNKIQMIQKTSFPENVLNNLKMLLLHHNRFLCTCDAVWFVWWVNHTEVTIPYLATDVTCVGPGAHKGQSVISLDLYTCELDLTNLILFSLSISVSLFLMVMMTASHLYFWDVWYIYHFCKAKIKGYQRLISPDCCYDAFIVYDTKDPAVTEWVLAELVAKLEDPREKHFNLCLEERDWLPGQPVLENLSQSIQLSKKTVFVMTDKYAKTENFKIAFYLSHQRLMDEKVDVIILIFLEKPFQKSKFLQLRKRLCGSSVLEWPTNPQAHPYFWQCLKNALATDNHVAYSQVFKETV
Experiment: Human TLR7 agonist activity reporter assay (HEK-Blue TLR7 cells, SEAP reporter)
Type: cell-based
Settings: human TLR7 (hTLR7) reporter assay, SEAP readout after 18 h, average where assay repeated, read-out: TLR7 Agonism EC50
Procedure: Human TLR7 Agonist Activity Assay This procedure describes a method for assaying human TLR7 (hTLR7) agonist activity of the compounds disclosed in this specification. HEK-Blue™ TLR7 cells were added to each well of a 384-well tissue-culture plate (15,000 cells per well) and incubated 16-18 h at 37° C., 5% CO2. Compounds (100 nl) were dispensed into wells containing the HEK-Blue™ TLR cells and the treated cells were incubated at 37° C., 5% CO2. […]
Give bare numbers, as −log10 of the molar value.

CCCCNc1nc(N)nc2cnn(Cc3ccc(CNC4CCC4)c4cccnc34)c12 :: 7.03
CCC[C@@H](CCO)Nc1nc(N)nc2cnn(Cc3ccc(CN4CC(OC)C4)c4cccnc34)c12 :: 7.51
CCC[C@@H](CCO)Nc1nc(N)nc2cnn(Cc3ccc(CN4CC(O)C4)c4cccnc34)c12 :: 7.31

Batch: pEC50 for all items listed.
1. CCC[C@@H](CCO)Nc1nc(N)nc2cnn(Cc3ccc(C(=O)N4CC(O)C4)c4cccnc34)c12
2. CCC[C@@H](CCO)Nc1nc(N)nc2cnn(Cc3ccc(C(=O)NC4CCN(C)CC4)c4cccnc34)c12

6.90
6.57

Provide pEC50 values for the following items, in order.
1. CCC[C@@H](CCO)Nc1nc(N)nc2cnn(Cc3ccc(C(=O)N4CCNCC4)c4cccnc34)c12
2. CCC[C@@H](CCO)Nc1nc(N)nc2cnn(Cc3ccc(C(=O)N4CC(OC)C4)c4cccnc34)c12

7.22
7.17

All figures here come from patent US12485123B2.
